One threshold, 3, splits the recorded logP values: lower ones are Condition met, equal or higher ones are Condition not met.

INSERT INTO measurements (compound, labelvalue) VALUES
  ('COc1ccccc1NS(=O)(=O)c1ccc(N)cc1', 'Condition met'),
  ('COP(=O)(OC)OC', 'Condition met'),
  ('CCCS(=O)(=O)CCC', 'Condition met'),
  ('COc1ccc(-c2nc3cnccc3o2)c(OC)c1', 'Condition met'),
  ('Nc1cccc2ncccc12', 'Condition met'),
  ('O=C1C=C(Br)C(=O)c2ccccc21', 'Condition met');

input: I'd appreciate it if you could check whether "C1=CCCCC1" has logP smaller than 3.
output: Condition met

input: I'd appreciate it if you could check whether CCN(CC)C(C)CN1c2ccccc2Sc2ccccc21 (centres undefined) has logP smaller than 3.
output: Condition not met

input: I'd appreciate it if you could check whether "CCCCOCc1cccc(NC(=O)OCCN2CCCCC2)c1" has logP smaller than 3.
output: Condition not met

input: I'd appreciate it if you could check whether "COc1ccc(C(C)c2ccc(OC)cc2)cc1" has logP smaller than 3.
output: Condition not met
